Catalogue of Exp. Log(RBA) readings, one per entry.
Measurement target: estrogen receptor (Rattus norvegicus)
Construct: in rat uterine cytosol, which was obtained from ovariectomized uteri of Sprague-Dawley rats; from tissue; host or cells: uterine cytosol of ovariectomized Sprague-Dawley rats
Sequence (P06211 whole entry): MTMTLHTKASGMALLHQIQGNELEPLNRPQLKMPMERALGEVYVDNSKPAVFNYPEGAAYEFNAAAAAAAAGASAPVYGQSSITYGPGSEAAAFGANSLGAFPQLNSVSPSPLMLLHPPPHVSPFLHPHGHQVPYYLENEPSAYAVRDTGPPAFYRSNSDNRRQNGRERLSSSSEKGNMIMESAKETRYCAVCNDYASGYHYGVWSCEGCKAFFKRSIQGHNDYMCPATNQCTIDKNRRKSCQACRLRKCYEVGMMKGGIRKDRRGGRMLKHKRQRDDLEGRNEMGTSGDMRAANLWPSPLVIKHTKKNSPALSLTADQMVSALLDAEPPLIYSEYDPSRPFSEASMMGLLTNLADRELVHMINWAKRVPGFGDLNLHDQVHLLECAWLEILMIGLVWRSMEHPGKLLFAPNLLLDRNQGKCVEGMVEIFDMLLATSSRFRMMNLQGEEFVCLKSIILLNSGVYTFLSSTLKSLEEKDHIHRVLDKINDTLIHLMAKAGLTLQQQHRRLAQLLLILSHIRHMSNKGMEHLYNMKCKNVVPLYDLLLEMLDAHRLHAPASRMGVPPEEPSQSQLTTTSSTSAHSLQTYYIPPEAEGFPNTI
Assay comment: Competitive ER binding assay with [3H]E2 in rat uterine cytosol (NCTR)
Recorded conditions: relative binding affinity vs 17-β-estradiol (RBA 100), rat uterine cytosol, 130 compound training set
Excerpt: The log relative binding activity (RBA) data for these 130 structurally diverse compounds was used to train the CoSCoSA models. The data was produced at NCTR using a competitive ER binding assay with radiolabeled estradiol ([^3H]E2) in rat uterine cytosol, which was obtained from ovariectomized uteri of Sprague-Dawley rats. […] For each of the 130 compounds, the ^13C 2D ^13C—^13C COSY NMR experiment was simulated using the ACD Labs CNMR version 5.0 2D predictor software. […]
Property: Exp. Log(RBA)

Compound	Property	Numeric value
Oc1ccc(C=Cc2ccc(O)cc2)cc1 [4,4′-dihroxystilbene]	Exp. Log(RBA)	−0.55
O=C(OCc1ccccc1)c1ccc(O)cc1 [benzyl-4-hydroxybenzoate]	Exp. Log(RBA)	−2.54
C[C@]12CC[C@@H]3c4ccc(O)cc4[C@@H](O)C[C@H]3[C@@H]1CC[C@@H]2O [1,3,5-Estratrien-3,6α-17β-triol]	Exp. Log(RBA)	−0.15
C[C@H]1CCC[C@H](O)CCC/C=C/c2cc(O)cc(O)c2C(=O)O1 [α-zearalenol]	Exp. Log(RBA)	1.63
O=C(/C=C/c1ccccc1)c1ccc(O)cc1 [4′-OH-chalcone]	Exp. Log(RBA)	−2.43
C(=C(c1ccccc1)c1ccccc1)c1ccccc1 [triphenylethylene]	Exp. Log(RBA)	−2.78
CC[C@H]1c2ccc3cc(OC)ccc3c2CC[C@@]1(C)C(=O)O [doisynoestrol]	Exp. Log(RBA)	−2.74
C[C@]12CC[C@@H]3c4ccccc4CC[C@H]3[C@@H]1CCC2=O [3-deoxyestrone]	Exp. Log(RBA)	−2.2
C[C@H]1CCC[C@@H](O)CCC/C=C/c2cc(O)cc(O)c2C(=O)O1 [β-zearalenol]	Exp. Log(RBA)	−0.69
Oc1ccc(-c2cc(Cl)c(Cl)c(Cl)c2Cl)cc1 [2,3,4,5-tetraCl-4′-biphenylol]	Exp. Log(RBA)	−0.64
Oc1ccc(CCc2ccccc2)cc1 [4-phenethylphenol]	Exp. Log(RBA)	−2.69
CCCCCCCOC(=O)c1ccc(O)cc1 [heptyl-4-hydroxybenzoate]	Exp. Log(RBA)	−2.09
O=C(c1ccc(O)cc1)c1ccc(O)cc1 [4,4′-dihydroxybenzophenone]	Exp. Log(RBA)	−2.46
O=C1CC(c2ccccc2)Oc2ccc(O)cc21 (stereo not drawn) [6-hydroxyflavanone]	Exp. Log(RBA)	−3.05
CC(C)(c1ccc(O)cc1)c1ccc(O)cc1 [bisphenol A]	Exp. Log(RBA)	−2.11
Clc1ccc(C(c2ccccc2Cl)C(Cl)(Cl)Cl)cc1 (stereo not drawn) [o,p′,-DDT]	Exp. Log(RBA)	−2.85
Oc1ccc(CCc2ccc(O)cc2)cc1 [4,4′-(1,2-ethanediyl)bisphenol]	Exp. Log(RBA)	−1.44
COc1ccc(C(=C(Cl)Cl)c2ccc(O)cc2)cc1 [monohydroxymethoxychlorolefin]	Exp. Log(RBA)	−0.63
CC/C(=C(/CC)c1ccc(OC)cc1)c1ccc(O)cc1 [diethylstilbestrol monomethyl ether]	Exp. Log(RBA)	1.31
C/C(=C(/C)c1ccc(O)cc1)c1ccc(O)cc1 [dimethylstibestrol]	Exp. Log(RBA)	1.16
CCC(c1ccc(O)cc1)C(CC)c1ccc(OC)cc1 (stereo not drawn) [monomethyl ether hexestrol]	Exp. Log(RBA)	0.97
C[C@@]12CCC[C@H]1[C@@H]1CCc3cc(O)ccc3[C@H]1CC2 [17-deoxyestradiol]	Exp. Log(RBA)	1.14
COc1ccc(C(c2ccc(O)cc2)C(Cl)(Cl)Cl)cc1 (stereo not drawn) [monohydroxymethoxychlor]	Exp. Log(RBA)	−0.89
O=C(/C=C/c1ccc(O)cc1)c1ccccc1 [4-OH-chalcone]	Exp. Log(RBA)	−2.43
CCC(c1ccc(O)c(O)c1)C(CC)c1ccc(O)c(O)c1 (stereo not drawn) [3,3′-dihydroxyhestrol]	Exp. Log(RBA)	1.19
C[C@H]1CCC[C@@H](O)CCCCCc2cc(O)cc(O)c2C(=O)O1 [β-zearalanol]	Exp. Log(RBA)	−0.19
CCCCN(C)C(=O)CCCCCCCCCC[C@@H]1Cc2cc(O)ccc2[C@H]2CC[C@]3(C)[C@@H](O)CC[C@H]3[C@H]12 [ICI164384]	Exp. Log(RBA)	1.16
O=c1c(-c2ccc(O)c(O)c2)coc2cc(O)ccc12 [3′,4′,7-trihydroxyisoflavone]	Exp. Log(RBA)	−2.35
CCc1cccc(O)c1 [3-ethylphenol]	Exp. Log(RBA)	−3.87
COc1ccc(-c2coc3cc(O)cc(O)c3c2=O)cc1 [biochanin A]	Exp. Log(RBA)	−2.37
